- target-system: UniProt P35968
- Sequence (P35968 whole entry): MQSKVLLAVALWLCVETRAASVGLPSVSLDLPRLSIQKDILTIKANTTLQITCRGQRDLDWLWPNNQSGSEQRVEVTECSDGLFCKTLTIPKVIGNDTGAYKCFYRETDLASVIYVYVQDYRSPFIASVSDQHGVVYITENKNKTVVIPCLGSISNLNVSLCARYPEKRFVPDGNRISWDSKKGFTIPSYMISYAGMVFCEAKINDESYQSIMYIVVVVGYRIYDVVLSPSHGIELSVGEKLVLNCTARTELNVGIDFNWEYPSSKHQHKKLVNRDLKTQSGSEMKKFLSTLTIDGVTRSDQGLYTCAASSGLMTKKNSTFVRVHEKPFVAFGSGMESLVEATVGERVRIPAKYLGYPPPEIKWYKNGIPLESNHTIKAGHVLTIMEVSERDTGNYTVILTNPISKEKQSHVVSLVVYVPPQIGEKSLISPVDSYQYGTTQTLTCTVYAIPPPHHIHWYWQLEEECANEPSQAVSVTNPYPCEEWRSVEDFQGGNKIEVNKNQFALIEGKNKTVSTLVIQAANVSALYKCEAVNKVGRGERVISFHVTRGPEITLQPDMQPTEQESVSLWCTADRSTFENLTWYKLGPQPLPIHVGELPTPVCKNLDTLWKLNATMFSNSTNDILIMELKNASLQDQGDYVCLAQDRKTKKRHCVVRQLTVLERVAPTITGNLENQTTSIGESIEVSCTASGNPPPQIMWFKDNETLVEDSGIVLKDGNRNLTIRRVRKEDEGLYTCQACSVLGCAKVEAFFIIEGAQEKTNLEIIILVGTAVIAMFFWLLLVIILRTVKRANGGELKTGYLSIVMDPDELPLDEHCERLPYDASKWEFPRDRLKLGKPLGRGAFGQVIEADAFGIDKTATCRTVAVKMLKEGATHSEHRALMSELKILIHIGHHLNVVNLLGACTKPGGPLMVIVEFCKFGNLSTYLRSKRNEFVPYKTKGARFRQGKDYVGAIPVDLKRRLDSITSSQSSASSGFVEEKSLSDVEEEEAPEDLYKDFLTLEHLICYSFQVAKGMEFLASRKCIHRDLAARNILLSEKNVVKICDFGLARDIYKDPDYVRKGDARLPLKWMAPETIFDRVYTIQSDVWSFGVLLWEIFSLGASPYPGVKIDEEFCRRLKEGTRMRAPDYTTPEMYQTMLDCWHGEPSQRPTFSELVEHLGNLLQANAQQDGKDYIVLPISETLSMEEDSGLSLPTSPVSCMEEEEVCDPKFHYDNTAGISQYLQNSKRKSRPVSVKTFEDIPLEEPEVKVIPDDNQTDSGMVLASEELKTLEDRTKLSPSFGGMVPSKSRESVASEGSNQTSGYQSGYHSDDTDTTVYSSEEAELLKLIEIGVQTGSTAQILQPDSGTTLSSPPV
assay-metric: pIC50
Worth noting: pIC50 values are minus log10 of concentrations stated in mol/L.

{"compound-structure-string": "Cc1c2ccc(N(C)c3ccnc(Nc4cccc(Br)c4)n3)cc2nn1C", "pIC50": 7.19}
{"compound-structure-string": "COc1cccc(Nc2nccc(N(C)c3ccc4cn(C)nc4c3)n2)c1", "pIC50": 6.97}
{"compound-structure-string": "CN(c1ccc2cn(C)nc2c1)c1ccnc(Nc2ccc(OC(F)(F)F)cc2)n1", "pIC50": 7.92}

INPUT: Return reported pIC50; argument: Cc1c2ccc(N(C)c3ccnc(Nc4cccc(Cl)c4)n3)cc2nn1C
OUTPUT: 7.60

INPUT: Return reported pIC50; argument: CN(c1ccc2cn(C)nc2c1)c1ccnc(Nc2cccc(Cl)c2)n1
OUTPUT: 7.14

INPUT: Return reported pIC50; argument: Cc1c2ccc(N(C)c3ccnc(Nc4cccc(F)c4)n3)cc2nn1C
OUTPUT: 7.11

INPUT: Return reported pIC50; argument: Cc1c2ccc(N(C)c3ccnc(Nc4ccc(OC(F)(F)F)cc4)n3)cc2nn1C
OUTPUT: 7.14
